These entries and their values trace back to patent US10112932B2.

Test system: HDQ-P1 (PI3Kα wild-type), p-PRAS40
Experiment: p-PRAS40 MSD assay in HDQ-P1 cells (Example 907)
Details: Homo sapiens, HDQ-P1, 24 h, read-out: P-PRAS40 HDQ-P1 MSD EC50
Entries annotated with measured EC50
Give the value in µM but do not write µM after it.

> print(dat)
                                        smi  recorded.value
1  CS(=O)(=O)N1CCN(Cc2cc3nc(-c4cccc5[nH]ncc45)nc(N4CCOCC4)c3s2)CC1           0.094
2  Cc1nc(NC(=O)N2CCC[C@H]2C(N)=O)sc1-c1ccnc(C(C)(C)C(F)(F)F)c1           0.311
3  NC(=O)[C@@H](Nc1ccc2c(c1)OCCn1cc(N3C(=O)OC[C@H]3CF)nc1-2)C1CC1           0.179

Lab note: next compound to report on.
Observed EC50, HDQ-P1 (PI3Kα wild-type), p-PRAS40, CC(C)n1ncnc1-c1cn2c(n1)-c1ccc(O[C@@H](C)C(N)=O)cc1OCC2 : 0.122
